Reported IC50 values for the following molecules.
target: Hypoxia inducible factors; HIF-1-alpha, HIF-2-alpha (Homo sapiens, UniProt Q16665+Q99814); test: Inhibition of hypoxia induced HIF1 transcriptional activity in human Hep3B cells by cell-based HRE reporter assay; assay type: functional; details: hep 3b2

Example entries begin here.
smiles	IC50
CN(C)CCNC(=O)c1ccc(O)c(NC(=O)COc2ccc(C34CC5CC(CC(C5)C3)C4)cc2)c1	> 30 µM
COc1cccc(-c2ccc(OCC(=O)Nc3cccc(C(=O)O)c3)cc2)c1	> 30 µM
O=C(COc1ccc(C23CC4CC(CC(C4)C2)C3)cc1)Nc1ccc(C(=O)O)cc1	> 30 µM
O=C(COc1ccc(C23CC4CC(CC(C4)C2)C3)cc1)Nc1cc(C(=O)NCc2ccco2)ccc1O	12.6 µM

Okay, now this molecule:
INPUT: Any idea what IC50 was measured for `O=C(COc1ccc(F)cc1)Nc1cccc(C(=O)O)c1` ?
OUTPUT: > 30 µM

Where do these numbers come from? They come from ChEMBL document CHEMBL1142965.
